assay: ABTS+ radical scavenging assay; settings: at a concentration of 500 μM;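 note: ABTS+ radical solution incubated with compound in EtOH in 96-well plates for 6–8 min in the dark at room temperature, versus blank control, trolox as reference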
I'd appreciate it if you could supply ABTS+ Inhibition Ratio (%) values for the items below.
Kindly provide the numeric value in % only, without the unit symbol.

Provide only the value of recorded ABTS+ Inhibition Ratio (%) for C[C@@H]1O[C@@H](Oc2c(-c3ccc(O)cc3)oc3cc(O)cc(O)c3c2=O)[C@H](O[C@@H]2O[C@H](CO)[C@@H](O)[C@H](O)[C@H]2O)[C@H](O)[C@H]1O [Compound 18]
5.89

Note ABTS+ Inhibition Ratio (%) for the compound shown: O=c1c(O[C@@H]2O[C@H](CO)[C@H](O)[C@H](O)[C@H]2O)c(-c2ccc(O)cc2)oc2cc(O)cc(O)c12 [Compound 14, kaempferol 3-O-β-D-galactopyranoside]
4.03

Quick one: give measured ABTS+ Inhibition Ratio (%) for O=C(O)c1ccc(O)cc1 [Compound 21, p-hydroxybenzoic acid]
3.21

Please report the measured ABTS+ Inhibition Ratio (%) for C[C@@H]1O[C@@H](Oc2c(-c3ccc(O)cc3)oc3cc(O)cc(O)c3c2=O)[C@H](O)[C@H](O)[C@H]1O [Compound 15, kaempferol 3-O-α-L-rhamnopyranoside]
8.00

Give the reported ABTS+ Inhibition Ratio (%) for this compound. O=C(O)c1cccc(O)c1 [Compound 22, m-hydroxybenzoic acid]
7.00

State its ABTS+ Inhibition Ratio (%): C[C@@H]1O[C@@H](OC[C@H]2O[C@@H](Oc3c(-c4ccc(O)cc4)oc4cc(O)cc(O)c4c3=O)[C@H](O)[C@@H](O)[C@@H]2O)[C@H](O)[C@H](O)[C@H]1O [Compound 12, kaempferol 3-O-rutinoside]
4.24

Numbers sourced from paper PMC10340768.
